- experimentalProtocol: physchem
Positions of bridges follow the written chain, without caps; N, C: chain ends. Non-standard residues stand in square brackets, D forms with d. Residues, ends and D or L forms follow the SMILES beside them. Lys(N3) = [N-]=[N+]=NCCCC[C@H](N)C(=O)O; R8 = C=CCCCCCC[C@@](C)(N)C(=O)O; Cba = N[C@@H](CC1CCC1)C(=O)O; S5 = C=CCCC[C@](C)(N)C(=O)O; Aib = CC(C)(N)C(=O)O; βAla = NCCC(=O)O
measuredParameter: EPSA (A^2)
Enter your answer as a number in A^2; do not include the unit.

Examples from the recorded data:
compound: CC(=O)N[C@@H](CC(C)C)C(=O)N[C@H](C(=O)N[C@@H](Cc1ccccc1)C(=O)NC(C)(C)C(=O)N[C@@H](CCC(=O)O)C(=O)N[C@@H](Cc1ccc(O)cc1)C(=O)N[C@@H](Cc1c[nH]c2ccccc12)C(=O)N[C@@H](C)C(=O)N[C@@H](CCC(N)=O)C(=O)N[C@@H](CC(C)C)C(=O)NC(C)(C)C(=O)N[C@@H](CO)C(N)=O)[C@@H](C)O [MP-790] (Ac-LTF[Aib]EYWAQL[Aib]S-NH2)
u: A^2
EPSA: 176
//
compound: CC(=O)N[C@@H](CC(C)C)C(=O)N[C@H](C(=O)N[C@@H](C)C(=O)N[C@]1(C)CCCCCCC=CCCC[C@@](C)(C(=O)N[C@@H](CO)C(=O)N[C@@H](C)C(=O)N[C@H](C)C(N)=O)NC(=O)[C@H](CC2CCC2)NC(=O)[C@H](CC(C)C)NC(=O)[C@H](CCC(N)=O)NC(=O)[C@H](Cc2c[nH]c3ccccc23)NC(=O)[C@H](Cc2ccc(O)cc2)NC(=O)[C@H](CCC(=O)O)NC1=O)[C@@H](C)O [MP-671] (Ac-LTA[R8]EYWQL[Cba][S5]SA[dA]-NH2; staple 4-11)
u: A^2
EPSA: 199
//
compound: CC(=O)N[C@@H](CCCCN=[N+]=[N-])C(=O)NCCC(=O)N[C@@H](CO)C(=O)N[C@H](C(=O)N[C@@H](Cc1ccccc1)C(=O)N[C@]1(C)CCCCCCC=CCCC[C@@](C)(C(=O)N[C@@H](CO)C(=O)N[C@@H](C)C(=O)N[C@@H](C)C(N)=O)NC(=O)[C@H](CC2CCC2)NC(=O)[C@H](CCC(N)=O)NC(=O)[C@H](CO)NC(=O)[C@H](Cc2c[nH]c3ccccc23)NC(=O)[C@H](Cc2ccc(O)cc2)NC(=O)[C@H](CO)NC1=O)[C@@H](C)O [MP-5493] (Ac-[Lys(N3)][βAla]STF[R8]SYWSQ[Cba][S5]SAA-NH2; staple 6-13)
u: A^2
EPSA: 204

Now for a further compound.
Entry CC(=O)N[C@@H](CCCCN=[N+]=[N-])C(=O)NCCC(=O)N[C@@H](CC(C)C)C(=O)N[C@H](C(=O)N[C@@H](Cc1ccccc1)C(=O)N[C@]1(C)CCCCCCC=CCCC[C@@](C)(C(=O)N[C@@H](CO)C(=O)N[C@@H](C)C(=O)N[C@@H](C)C(N)=O)NC(=O)[C@H](CC2CCC2)NC(=O)[C@H](CCC(N)=O)NC(=O)[C@H](C)NC(=O)[C@H](Cc2c[nH]c3ccccc23)NC(=O)[C@H](Cc2ccc(O)cc2)NC(=O)CNC1=O)[C@@H](C)O [MP-210] (Ac-[Lys(N3)][βAla]LTF[R8]GYWAQ[Cba][S5]SAA-NH2; staple 6-13) has what EPSA?
198

Hello, the source for this data is paper PMC10786919, in case you need it.
